System: SNB-75
Method Description: NCI tumour cell line growth inhibition, 48 h
The source made the active and inactive calls. Cut-off read from the data, not from the text of the source: active = GI50 up to about 1.1 µM and inactive = higher.

Molecule: CN(C(=O)c1ccncc1)c1ccccc1
GI50: > 100 µM (inactive)
--
Molecule: CCOC(=O)C1=C(OC(OCC)C(CC)[Se]c2ccccc2)CCC1 (centres undefined)
GI50: 25.3 µM (inactive)
--
Molecule: O=C(NCCCCCCNC(=O)c1cc(-c2ccccc2)nc2ccccc12)c1cc(-c2ccccc2)nc2ccccc12
GI50: 33.3 µM (inactive)
--
Molecule: O=C(OCC1CCCN2CCCCC12)c1ccncc1 (centres undefined)
GI50: > 100 µM (inactive)
--
Molecule: CC(=O)NNc1nc(C)c(C(=O)NNC(=O)C(=O)Nc2ccc([N+](=O)[O-])cc2[N+](=O)[O-])s1
GI50: 47.5 µM (inactive)
--
Molecule: O=C(CN(Cc1ccccc1)Cc1ccccc1)N1CCc2c([nH]c3ccccc23)C1c1cccnc1 (centres undefined)
GI50: 7.36 µM (inactive)
--
Molecule: CC(=O)[C@@H]1C/C(=C\OCc2ccccc2)O[C@H]1C
GI50: > 100 µM (inactive)
--
Molecule: N#C/C(=C\NC(=S)Nc1ccc(S(=O)(=O)Nc2ccccn2)cc1)C(N)=O
GI50: 61.8 µM (inactive)
--
Molecule: CSc1cc(Cl)c(C)cc1S(=O)(=O)NC(=O)NNc1ccc(Cl)cc1
GI50: > 100 µM (inactive)
--
Molecule: CCOC(=O)c1c(SCCN2CCCC2)n(-c2ccccc2)c(=S)n(-c2ccccc2)c1=O
GI50: 6.93 µM (inactive)
--
Molecule: NC1(C(=O)O)CCCC1C(=O)O (centres undefined)
GI50: > 100 µM (inactive)
--
Molecule: CCOC(=O)C1=C(C)N(NC(N)=O)C2(O)CCCC(=O)C12C (centres undefined)
GI50: > 100 µM (inactive)
--
Molecule: CCCN(CCC)C1CCc2c(ccc3cc[nH]c23)C1 (centres undefined)
GI50: 25.6 µM (inactive)
--
Molecule: Cc1ccc(S(=O)(=O)N/N=C(\CCN2CCCC2)CC(c2ccccc2)c2c(O)c3ccccc3oc2=O)cc1 (centres undefined)
GI50: > 100 µM (inactive)
